Assign TGI to each entry below.
- Tested on: OVCAR-3 ovarian
- assay procedure: NCI tumour cell line growth inhibition, 48 h

Given the entry C=CC1(C)CCC(C(C)C(=O)C(C=C(C)C)OC(C)=O)C12C(=O)Oc1ccccc1C2=O (configuration not stated) , report its measured TGI.
> 100 µM

Find the recorded TGI belonging to "O=C(Cc1nc2ccccc2s1)C(=O)Nc1ccc(Cl)cc1" and report it.
> 100 µM

Suppose we examine the compound CCCCCCCCC[C@@H]1C[C@@H]2CCC3C(C(=O)OC)=C(C)NC(=N1)N32 (some centres not stated) ; what TGI value has been reported?
11.6 µM

Please look up its TGI: "C=C(O)c1ccccc1C#Cc1ccccc1C(=O)OC"
> 10 µM

Give its TGI value. Item: "S=c1ssc2c3ssc(=S)c3n(Cc3ccccc3)c12"
> 100 µM

May I ask what TGI has been recorded for "Cc1ccc2c(c1)SSSSS2" ?
40.5 µM

Requested field: TGI. Item: "C/C(=N/NC(=S)Nc1ccccc1Cl)c1ccccn1"
10.9 µM

Which TGI is reported for this compound? "CCOC(=N)CC(=O)Nc1ccc(Cl)cc1"
> 100 µM

Fill in: TGI of "COc1ccc2[nH]cc(CCNC(C)=O)c2c1" is ___
> 100 µM

Form field: reported TGI of CCCC1NC(=O)C(CC(C)C)NC(=O)c2cccc(n2)C(=O)NC(CC(C)C)C(=O)NC(CCC)C(=O)NC(C(=O)OC)CCCCNC1=O (configuration not stated)
> 100 µM

Which TGI reading was recorded for the compound "C/C(CN1C(=O)c2ccccc2C1=O)=N\NS(=O)(=O)c1cccc([N+](=O)[O-])c1" ?
> 100 µM

Given the compound "O=C(Nc1ccc(S(=O)(=O)Nc2nccs2)cc1)c1cccnc1Nc1cccc(Cl)c1" , what is its reported TGI?
27.4 µM

Request the reported TGI associated with "CCOc1c2ccsc2c(OCC)c2ccsc12"
61.1 µM

Reported TGI for "O=c1c(O)c(-c2ccc(O)cc2O)oc2cc(O)cc(O)c12" : what is it?
> 100 µM

Sample "Cn1cc(C(=O)c2nccc3c2cnc2ccccc23)ccc1=O" — what was its TGI?
> 100 µM

Bench note: what TGI did "Cc1ccc(Nc2nc(NCCO)c3ccccc3n2)cc1C" show?
23 µM

Consider the compound "CCOC(=O)c1cc2cc(N(C(C)=O)C(C)=O)ccc2s1" and give its measured TGI.
> 100 µM

Fill blank: measured TGI of the compound "CCOC(=O)c1c(C)n(Cc2ccccc2)c(=O)c2ccccc2c(=O)c2c(=O)ccc(=O)c1=2" is ____.
> 100 µM

Return reported TGI; argument: "Clc1ccc(-c2nn3c(CCCCCCCCc4nnc5sc(-c6ccc(Cl)cc6)nn45)nnc3s2)cc1"
59 µM

So what's the measured TGI for this one? "CCCCCCCCCCCCN1C(C)=CS/C1=C\C=C\c1scc(C)[n+]1CCCCCCCCCCCC"
3.69 µM

May I ask what TGI has been recorded for Cc1ccc(C)c(NC(=O)C(=O)C2C(=O)C3=C(CC2(C)C)Nc2ccccc2S3)c1 (configuration not stated) ?
> 100 µM

Sample CC1=C(/C=C/C(C)=C/C=C/C(C)=C/C(=O)OCC2OC(n3cc(F)c(=O)[nH]c3=O)CC2OC(=O)/C=C(C)/C=C/C=C(C)/C=C/C2=C(C)CCCC2(C)C)C(C)(C)CCC1 (configuration not stated) — what was its TGI?
> 39.5 µM

Query: TGI; subject: COc1ccc(OCC(=O)O)c2c1CCC(C(C)C)C2=O (configuration not stated)
> 100 µM

Which TGI is reported for this compound? "O=C1C=CC(=O)c2c1ccc1c3ccccc3n(-c3ccccn3)c21"
63.8 µM

Any idea what its TGI is? The compound is "COc1ccc(/C=C2\C=Cc3ccccc32)cc1OC"
> 100 µM

What TGI value was documented for this compound, "S=c1[nH]nc(COc2ccc3c(c2)CCCC3)n1/N=C/c1ccc(Cl)cc1" ?
30.7 µM

Which measured TGI value corresponds to "COc1nc2c(OC)cccc2c(OC)c1C=O" ?
> 100 µM

May I ask what TGI has been recorded for Cc1ccc(S(=O)(=O)N/N=C(\CCN2CCCC2)CC(c2ccccc2)c2c(O)c3ccccc3oc2=O)cc1 (configuration not stated) ?
> 100 µM

Look at this compound and give its reported TGI. N#CC1=C(N)Oc2cc3c(cc2C1c1cccs1)OCO3 (configuration not stated)
0.644 µM

Any idea what its TGI is? The compound is "Cn1c(=O)oc2cc(C(=O)CSC(=S)N3CCCCCC3)ccc21"
> 100 µM

# get_value(readout='TGI', item= "CN/N=C(/Cc1occc(=O)c1O)C(=O)Nc1ccc(C)c(C)c1" )
> 100 µM

Could you share which TGI value was measured for NC(N)=NCCCC(N=c1c2ccccc2n(O)c2ccccc12)C(=O)O (configuration not stated) ?
> 100 µM

Consider the compound "C=C1C(=O)O[C@H]2[C@H]1CC/C(COC(=O)C(=O)c1c[nH]c3ccccc13)=C\CC[C@@]1(C)O[C@@H]21" and give its measured TGI.
4.63 µM

Requested read-out: TGI. Entry: COC(=O)c1ccccc1C1CN=NC12Cc1ccc3ccccc3c1C2=O (configuration not stated)
> 100 µM

Need TGI of "COc1cc(Nc2cnc3cc(C(F)(F)F)ccc3n2)cc(OC)c1OC" , thanks.
> 100 µM

Given the compound "O=C(O)c1ccc(S(=O)(=O)c2ccccc2)c([N+](=O)[O-])c1" , what is its reported TGI?
> 100 µM

Entry "C=C1C(=O)O[C@@H]2C[C@@H]1CC[C@]1(C)O[C@H]1CC[C@@]1(C)O[C@@H]1CC[C@@]2(C)O" has what TGI?
51.9 µM

Please look up its TGI: Cc1cc2c(cc1C)NC(=O)C(NC(=O)/C=C/c1ccccc1)C=N2 (configuration not stated)
55.2 µM

So what does the record say about TGI for "Brc1cccc(/C=C/CN2CCN(CCOC(c3ccccc3)c3ccccc3)CC2)c1" ?
30.2 µM

Sample "CN(C)CCCNc1c(O)c2c(c(O)c1Cl)C(=O)C=CC2=O" — what was its TGI?
6.6 µM

Fill blank: measured TGI of the compound "CCOC(=O)C1(C(=O)OCC)C[C@]23OCCC(=O)[C@H]2[C@H]2C(=O)OC(C)(C)O[C@]23C1" is ____.
> 100 µM

Requested read-out: TGI. Entry: "COc1ccc(C(=O)Cn2c(C(=O)c3ccc(Cl)cc3)nc3ccccc32)cc1"
> 77.6 µM

Numbers sourced from PubChem BioAssay (NCI).
